test: yeast display, Sf9 membrane polyspecificity reagent, FACS + sequencing; frameworks hold sequencing errors
endpoint: polyreactivity (PSR sort gate)

Worked cases, answers included:
sequence entry	polyreactivity (PSR sort gate)
QVQLVESGGGLVQAGGSLRLICAASGGIFYFNAMGWYRQAPGKERELVASITWSGGNTYYADSVKGRFTISRDNAKNTVYLQMNSLKPEDTAVYYCAADTQEYRPTYDYWGQGTQVTVSS	low polyreactivity
QVQLVESAGGLVQAGGSLRLSCPASGRTSVINAMGWYRQSPGKERELVAAISSDGITNYADSVKGRFTISRDNAKNTVYLQMISLKPEDTAVYYCAAEWYYVYIAPYDYWGQGTQVTVSS	low polyreactivity
QVQLEESGGGLVQAGGSLRLSCAASGFIYRGYTMGWYRTAPGKERELVAGITSTASTNYADSVKGRFTISRDNAKNTVYLQMNSLKPEDTAVYYCAAGVPYRLRNRYYYWGQGTQVTVSS	high polyreactivity
QVQLVESGGGLVQAGGRLRLSCAASGRIFRRYAMGWYRQAPGKERELVAAITSSGTSTHYADSVKGRFTISRDNAKNTVYLQMNSLKPEDTAVYYCAARYSTYPWYNYCGQGTQVTVSS	high polyreactivity

Please turn your attention to the following entry.
Just so you know, measured polyreactivity (PSR sort gate) for QVQLVESGGGLVQAGGSLRLSCAASGSTLYAYAMGWYRQAPGKERELVASIPAGGITHYADSVKGRVTISRDNANNTVYLHMISLKPEDTAVDYCNTVAYLRRFDKWGMNYWGQGTQVTVSS came out at low polyreactivity

###

experiment: yeast display, Sf9 membrane polyspecificity reagent, FACS + sequencing; frameworks hold sequencing errors
endpoint: polyreactivity (PSR sort gate)

sequence entry	endpoint	recorded measurement
QVQLVESGGGLVQAGGSLRLSCAASGIIFTYYAMGWYRQAPGKERELVAAISYRGGSTNYADSVKGRFTISRDNAKNTVYLQMNSLKPEDTAVYYCAAKSYWKRFRVLYDYWGQGTQVTVSS	polyreactivity (PSR sort gate)	high polyreactivity
QVQLVESGGGLVQAGGRLRLSCAASGSTFRPYAMGWYRQAPGKERELVAAITFNGDTYADSVKGRFTISRDNAKNTVYLQMNSLKPEDTAVYYCAARKWYYYLRPWTSVGGYYWGQGTQVTVSS	polyreactivity (PSR sort gate)	high polyreactivity
QVLLQESGGGLVQAGGSLRLSCAASGSIFLFYTMGWSRQAPVKEREFVAGITLGTTTYNADSVKGRFTISRDNVKNTVYLQMNSLKPEDTAVYYCAVAVGHYTEFWYWGQGTQVTMSS	polyreactivity (PSR sort gate)	high polyreactivity
QVQLVESGGGRDQAGGSLRLSCAASGSTFNGYAMGWYRQAPGKERELVAAISSRGGSTNYADSVKGRFTISRDNAKKTVYLQMNSLKPEDTAVYYCNAVYRRSRSVGSCFDDWGQVTQVTVSS	polyreactivity (PSR sort gate)	high polyreactivity

###

experiment: yeast display, Sf9 membrane polyspecificity reagent, FACS + sequencing; frameworks hold sequencing errors
endpoint: polyreactivity (PSR sort gate)

Worked cases, answers included:
sequence entry	recorded measurement
HVQLVESGGGLVHAGGSLRLSCAASGSILPKYAMGWYRQEPGKQRLLVATITWSGSSTYYADSVKGRFTISRDNAQNTVYLQMNSLKPEDTAVYYCAATGWSSFYYRFEYWGQGTQVTVSS	low polyreactivity
QVQLVESGGGLVQAGGSLRLSCAASYAMGGYRQAPGKERELVAGISRSGDITYYADSVKGRFTISRDNAKNTVYLQMNSLKPEDTAVYYCAARQGRYSGRQLFYWGQGTQVTVSS	high polyreactivity
QEQLQESGGGMVQVGGTLRLSCAATGTIFIYGFLGWNRQAPGKERELVASINLGGITNYADSVKGRFTISRDNAKNTVYLQMISLKPEDTAVYYCAAYLVTGQNYGYWGQGTQVTVSS	low polyreactivity
QVQLVESGGGLVQAGGSLRLSCAASGSIFYGYAMGWYRPAPGKERELVAAISSGGRTYYADSVKGRFTISRDNAKNTVYLQMNSLKPEDTAVYHCAASYWKPHRESGYDYWGQGTQVTVSS	high polyreactivity

Just so you know, measured polyreactivity (PSR sort gate) for QDQLVDSGGGLVQAGGSLRLSCAASGTFFMGWYRQAPGKERELVAGISIYDGSTYYADSVKGRFTISRDNAKNTVYLQMNRLKPEDTAVYYCAAEFYPTTGFDYWGQGTQVTVSS came out at low polyreactivity
